system-name: porcine tubulin (Sus scrofa, UniProt P02550+P02554)
Construct: purchased Cytoskeleton Inc. BK006P
Sequence (P02550 whole entry): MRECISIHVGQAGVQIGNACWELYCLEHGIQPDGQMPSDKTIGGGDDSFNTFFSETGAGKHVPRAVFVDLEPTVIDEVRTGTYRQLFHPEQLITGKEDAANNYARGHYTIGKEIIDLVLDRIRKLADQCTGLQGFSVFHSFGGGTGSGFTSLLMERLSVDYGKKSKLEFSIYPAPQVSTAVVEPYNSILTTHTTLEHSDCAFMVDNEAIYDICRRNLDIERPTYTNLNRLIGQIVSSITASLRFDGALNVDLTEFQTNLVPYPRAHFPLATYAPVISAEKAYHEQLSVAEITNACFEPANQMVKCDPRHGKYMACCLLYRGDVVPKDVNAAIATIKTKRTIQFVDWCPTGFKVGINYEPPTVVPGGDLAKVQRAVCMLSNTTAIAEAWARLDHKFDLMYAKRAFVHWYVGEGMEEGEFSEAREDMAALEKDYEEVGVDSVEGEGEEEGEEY
Sequence (P02554 whole entry): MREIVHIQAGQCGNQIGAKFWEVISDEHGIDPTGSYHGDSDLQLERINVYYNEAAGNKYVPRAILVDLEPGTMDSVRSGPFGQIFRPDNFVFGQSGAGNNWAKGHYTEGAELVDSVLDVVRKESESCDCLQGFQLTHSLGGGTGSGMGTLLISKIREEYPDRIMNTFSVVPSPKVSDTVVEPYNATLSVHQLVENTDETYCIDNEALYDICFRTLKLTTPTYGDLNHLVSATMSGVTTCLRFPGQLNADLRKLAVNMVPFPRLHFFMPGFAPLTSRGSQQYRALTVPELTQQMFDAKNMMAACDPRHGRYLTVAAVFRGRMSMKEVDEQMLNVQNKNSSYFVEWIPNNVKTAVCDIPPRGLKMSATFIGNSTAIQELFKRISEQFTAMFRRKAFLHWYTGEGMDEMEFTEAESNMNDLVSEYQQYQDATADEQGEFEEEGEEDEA
measurement-description: Activity for inhibiting microtubule polymerization using porcine tubulins (2), microtubule polymerization rate
Type: biochemical
test-context: compound 9.1 μM, 60 minutes after assay initiation, relative to wells without compound; lower = stronger inhibition
Procedure: Using a tubulin polymerization inhibition assay kit (catalog number: BK006P) purchased from Cytoskeleton Inc., the polymerization inhibitory activity of compounds of Examples at a concentration of 9.1 μM was evaluated in accordance with the protocol appended to the kit. […] In order to examine a state in which tubulins polymerize over time, the absorbance at 340 nm was measured at 37° C., using a microplate reader. As the polymerization of tubulins progresses, the absorbance at 340 nm rises. […]
measurement-name: Microtubule polymerization rate (%)
Answers are plain numbers, in %.

- compound: "CN[C@H](C(=O)N[C@H](C(=O)N(C)[C@H](/C=C(\\C)C(=O)N[C@H](CCC(=O)NCCN1C(=O)CC(SC[C@H](N)C(=O)O)C1=O)C(=O)O)C(C)C)C(C)(C)C)C(C)(C)c1ccccc1 (stereo partly shown) [Example 37]"
  measured-value: 9

// each compound listed below needs its Microtubule polymerization rate (%)
1. CN[C@H](C(=O)N[C@H](C(=O)N(C)[C@H](/C=C(\C)C(=O)N[C@H](CCC(=O)NCCCCN1C(=O)CC(SC[C@H](N)C(=O)O)C1=O)C(=O)O)C(C)C)C(C)(C)C)C(C)(C)c1ccccc1 (stereo partly shown) [Example 48]
2. CN[C@H](C(=O)N[C@H](C(=O)N(C)[C@H](/C=C(\C)C(=O)N[C@H](CCC(=O)NCCCN1C(=O)CC(SC[C@H](N)C(=O)O)C1=O)C(=O)O)C(C)C)C(C)(C)C)C(C)(C)c1cn(C)c2ccccc12 (stereo partly shown) [Example 54]
3. CN[C@H](C(=O)N[C@H](C(=O)N(C)[C@H](/C=C(\C)C(=O)O)C(C)C)C(C)(C)C)C(C)(C)c1cn(C)c2ccccc12 [Hemiasterlin, reference compound]
4. CN[C@H](C(=O)N[C@H](C(=O)N(C)[C@H](/C=C(\C)C(=O)NCCCC[C@@H](NC(=O)CCCN1C(=O)CC(SC[C@H](N)C(=O)O)C1=O)C(=O)O)C(C)C)C(C)(C)C)C(C)(C)c1ccccc1 (stereo partly shown) [Example 58]
5. C/C(=C\[C@H](C(C)C)N(C)C(=O)[C@@H](NC(=O)[C@H]1CCCCN1C(C)C)C(C)(C)C)C(=O)N[C@H](CCC(=O)O)C(=O)O [Example 3]
6. CN[C@H](C(=O)N[C@H](C(=O)N(C)[C@H](/C=C(\C)C(=O)N[C@@H](CCC(=O)NCCN1C(=O)CC(SC[C@H](N)C(=O)O)C1=O)C(=O)O)C(C)C)C(C)(C)C)C(C)(C)c1ccccc1 (stereo partly shown) [Example 42]
7. CN[C@H](C(=O)N[C@H](C(=O)N(C)[C@H](/C=C(\C)C(=O)N[C@H](CCC(=O)O)C(=O)O)C(C)C)C(C)(C)C)C(C)(C)c1ccccc1 [Example 2]

Return:
1. 0
2. 0
3. 0
4. 0
5. 5
6. 0
7. 2

// each compound listed below needs its Microtubule polymerization rate (%)
1. CN[C@H](C(=O)N[C@H](C(=O)N(C)[C@H](/C=C(\C)C(=O)N[C@@H](CCC(=O)O)C(=O)O)C(C)C)C(C)(C)C)C(C)(C)c1cn(C)c2ccccc12 [Example 6]
2. CN[C@H](C(=O)N[C@H](C(=O)N(C)[C@H](/C=C(\C)C(=O)N[C@@H](CCC(=O)NCCN1C(=O)CC(SC[C@H](N)C(=O)O)C1=O)C(=O)O)C(C)C)C(C)(C)C)C(C)(C)c1cn(C)c2ccccc12 (stereo partly shown) [Example 49]

Return:
1: 4; 2: 0
